# TESTED ON: Angiotensin II receptor (Rattus norvegicus) (UniProt P29089+P25095+P35351)
# ASSAY METHOD TEXT: Inhibitory activity on AII (100 ng/kg iv)-induced pressor response after administration at 0.1 mg/kg po in conscious male Sprague-Dawley rats at 5 h.
# Format: functional, organism-based
# Set-up: dose 0.1 mg/kg
OBSERVATION TYPE: inhibition (%)

>  <SMI>
CCOc1nc2cccc(C(=O)OCOC(=O)OC3CCCCC3)c2n1Cc1ccc(-c2ccccc2-c2nn[nH]n2)cc1

>  <TESTED ON>
Angiotensin II receptor (Rattus norvegicus) (UniProt P29089+P25095+P35351)

>  <NUMERIC READOUT>
53

$$$$
>  <SMI>
CCCCc1nc2cccc(C(=O)O)c2n1Cc1ccc(-c2ccccc2-c2nnn(COC(=O)C(C)(C)C)n2)cc1.CCCCc1nc2cccc(C(=O)O)c2n1Cc1ccc(-c2ccccc2-c2nnnn2COC(=O)C(C)(C)C)cc1

>  <TESTED ON>
Angiotensin II receptor (Rattus norvegicus) (UniProt P29089+P25095+P35351)

>  <NUMERIC READOUT>
67

$$$$
>  <SMI>
CCOc1nc2cccc(C(=O)OCOC(=O)OC3CCCC3)c2n1Cc1ccc(-c2ccccc2-c2nn[nH]n2)cc1

>  <TESTED ON>
Angiotensin II receptor (Rattus norvegicus) (UniProt P29089+P25095+P35351)

>  <NUMERIC READOUT>
77

$$$$
>  <SMI>
CCOc1nc2cccc(C(=O)OCc3oc(=O)oc3C)c2n1Cc1ccc(-c2ccccc2-c2nn[nH]n2)cc1

>  <TESTED ON>
Angiotensin II receptor (Rattus norvegicus) (UniProt P29089+P25095+P35351)

>  <NUMERIC READOUT>
70

$$$$
>  <SMI>
CCOc1nc2cccc(C(=O)OCOC(=O)C3CCCCC3)c2n1Cc1ccc(-c2ccccc2-c2nn[nH]n2)cc1

>  <TESTED ON>
Angiotensin II receptor (Rattus norvegicus) (UniProt P29089+P25095+P35351)

>  <NUMERIC READOUT>
89

$$$$

[1] CCOc1nc2cccc(C(=O)OCOC(=O)OC(C)C)c2n1Cc1ccc(-c2ccccc2-c2nn[nH]n2)cc1
[2] CCCCc1nc2cccc(C(=O)OCCO)c2n1Cc1ccc(-c2ccccc2-c2nn[nH]n2)cc1
[in] For the pair 1 and 2 , which member has the lower inhibition number? Record your answer as the label of the chosen record.
[out] 2
(2: 21%, 1: 68%)

###

# TESTED ON: Angiotensin II receptor (Rattus norvegicus) (UniProt P29089+P25095+P35351)
# ASSAY METHOD TEXT: Inhibitory activity on AII (100 ng/kg iv)-induced pressor response after administration at 0.1 mg/kg po in conscious male Sprague-Dawley rats at 5 h.
# Format: functional, organism-based
# Set-up: dose 0.1 mg/kg
OBSERVATION TYPE: inhibition (%)

Below, each entry is followed by its recorded inhibition result.
>  <MOLECULE>
CCOc1nc2cccc(C(=O)OCOC(=O)/C=C/c3ccccc3)c2n1Cc1ccc(-c2ccccc2-c2nn[nH]n2)cc1

>  <UNIT DESCRIPTOR>
%

>  <inhibition>
61

$$$$
>  <MOLECULE>
CCCCc1nc2cccc(C(=O)OC(C)OC(=O)OCC)c2n1Cc1ccc(-c2ccccc2-c2nn[nH]n2)cc1 (configuration not stated)

>  <UNIT DESCRIPTOR>
%

>  <inhibition>
81

$$$$
>  <MOLECULE>
CCCCc1nc2cccc(C(=O)OC)c2n1Cc1ccc(-c2ccccc2-c2nn[nH]n2)cc1

>  <UNIT DESCRIPTOR>
%

>  <inhibition>
38

$$$$
>  <MOLECULE>
CCOc1nc2cccc(C(=O)OC(C)OC(=O)OC(C)C)c2n1Cc1ccc(-c2ccccc2-c2nn[nH]n2)cc1 (configuration not stated)

>  <UNIT DESCRIPTOR>
%

>  <inhibition>
80

$$$$
>  <MOLECULE>
CCCCc1nc2cccc(C(=O)OCC)c2n1Cc1ccc(-c2ccccc2-c2nn[nH]n2)cc1

>  <UNIT DESCRIPTOR>
%

>  <inhibition>
68

$$$$

[a] CCOc1nc2cccc(C(=O)O)c2n1Cc1ccc(-c2ccccc2-c2nnn[nH]2)cc1
[b] CCCCc1nc2cccc(C(=O)OCc3ccncc3)c2n1Cc1ccc(-c2ccccc2-c2nn[nH]n2)cc1
[c] CCOc1nc2cccc(C(=O)OCOC(=O)OCC3CC3)c2n1Cc1ccc(-c2ccccc2-c2nn[nH]n2)cc1
[in] Let's sort these by inhibition, smallest first. Go ahead? // list labels; follow requested order
[out] b, c, a
(b: 18%, c: 44%, a: 85%)

[P] CCOc1nc2cccc(C(=O)OC(C)OC(=O)OC3CCC3)c2n1Cc1ccc(-c2ccccc2-c2nn[nH]n2)cc1 (configuration not stated)
[Q] CCOc1nc2cccc(C(=O)OCOC(=O)CC)c2n1Cc1ccc(-c2ccccc2-c2nn[nH]n2)cc1
[in] For the pair P and Q , which member has the lower inhibition number? Record your answer as the label of the chosen record.
[out] Q

Each recorded value in this set is attributed to ChEMBL document CHEMBL1126763.
